Reference for the values: PubChem BioAssay AID1963869

- Test system: KRAS patient-derived spheroids with HUVEC/MSC, viability
- assay.procedure: Anticancer human tumor 323965-272-R-J2-PDC patient-derived pancreatic carcinoma cell line growth inhibition [KRAS2]; active means viability on the fitted dose curve at most 10% of control; inactive means the rest
- reported.conditions: second compound 10 µM; first compound 0.0316 µM
Give your call using only these classes: True (active), False (inactive)

>>> class_assignment("CC(=O)OC12COC1CC(O)C1(C)C(=O)C(O)C3=C(C)C(OC(=O)C(O)C(NC(=O)OC(C)(C)C)c4ccccc4)CC(O)(C(OC(=O)c4ccccc4)C21)C3(C)C (centres undefined) + COc1cc2nc(C)nc(NC(C)c3cc(N)cc(C(F)(F)F)c3)c2cc1OC1CCOC1")
"False"
>>> class_assignment("O=C(c1cc(Cc2n[nH]c(=O)c3ccccc23)ccc1F)N1CCN(C(=O)C2CC2)CC1 + CC1OCC2(CCN(c3cnc(Sc4ccnc(N)c4Cl)c(N)n3)CC2)C1N")
"False"
>>> class_assignment("CC(=O)Nc1cccc(-n2c(=O)n(C3CC3)c(=O)c3c(Nc4ccc(I)cc4F)n(C)c(=O)c(C)c32)c1 + CC1OCC2(CCN(c3cnc(Sc4ccnc(N)c4Cl)c(N)n3)CC2)C1N")
"False"

Asked: What outcome does the record of this test show for CC(C)n1nc(-c2ccc3oc(N)nc3c2)c2c(N)ncnc21 + C=CC(=O)N1CCN(c2nc(=O)n(-c3c(C)ccnc3C(C)C)c3nc(-c4c(O)cccc4F)c(F)cc23)C(C)C1 ?
Given back: False

Asked: Which result was noted for this compound in the test: Cn1nccc1Nc1nccc(-c2cc3c(s2)C(C)(C)N(CCN2CCOCC2)C3=O)n1 + CNCc1ccccc1-c1csc(C(C)Nc2nc(C)nc3cc(OC)c(OC)cc23)c1
Given back: True

Asked: State the result this test recorded for CC(C)NCC(C(=O)N1CCN(c2ncnc3c2C(C)CC3O)CC1)c1ccc(Cl)cc1 (centres undefined) + CC1OCC2(CCN(c3cnc(Sc4ccnc(N)c4Cl)c(N)n3)CC2)C1N .
Given back: False

Asked: Could you check what this test reported for COc1cc2nccc(Oc3ccc(NC(=O)C4(C(=O)Nc5ccc(F)cc5)CC4)cc3)c2cc1OC + CC1OCC2(CCN(c3cnc(Sc4ccnc(N)c4Cl)c(N)n3)CC2)C1N ?
Given back: False

Asked: Which result was noted for this compound in the test: COc1cc2nccc(Oc3ccc(NC(=O)C4(C(=O)Nc5ccc(F)cc5)CC4)cc3)c2cc1OC + C=CC(=O)N1CCN(c2nc(=O)n(-c3c(C)ccnc3C(C)C)c3nc(-c4c(O)cccc4F)c(F)cc23)C(C)C1
Given back: False

Asked: # outcome recorded in this test, key = CC(C)NCC(C(=O)N1CCN(c2ncnc3c2C(C)CC3O)CC1)c1ccc(Cl)cc1 (centres undefined) + C=CC(=O)N1CCN(c2nc(=O)n(-c3c(C)ccnc3C(C)C)c3nc(-c4c(O)cccc4F)c(F)cc23)C(C)C1
Given back: False

====

Reported viability, T/C is given for each of the following compounds.
- System: KRAS patient-derived spheroids with HUVEC/MSC, viability
- assay.procedure: Anticancer human tumor 323965-272-R-J2-PDC cell line growth inhibition [KRAS2];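 further: spheroids exposed to agents for 7 days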;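 on viability, T/C: 100% = DMSO vehicle control viability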
- reported.conditions: second compound 3.16 µM; first compound 0.00316 µM; stronger effect = lower value
Numeric only. Scale: %

>>> val("CCN1CCN(Cc2ccc(Nc3ncc(F)c(-c4cc(F)c5nc(C)n(C(C)C)c5c4)n3)nc2)CC1 + CC1OCC2(CCN(c3cnc(Sc4ccnc(N)c4Cl)c(N)n3)CC2)C1N")
18.8
>>> val("CC(C)n1nc(-c2ccc3oc(N)nc3c2)c2c(N)ncnc21 + C=CC(=O)N1CCN(c2nc(OCC3CCCN3C)nc3c2CCN(c2cccc4cccc(C)c24)C3)CC1CC#N")
15.1
>>> val("CCN1CCN(Cc2ccc(Nc3ncc(F)c(-c4cc(F)c5nc(C)n(C(C)C)c5c4)n3)nc2)CC1 + CNCc1ccccc1-c1csc(C(C)Nc2nc(C)nc3cc(OC)c(OC)cc23)c1")
80
>>> val("CCN1CCN(Cc2ccc(Nc3ncc(F)c(-c4cc(F)c5nc(C)n(C(C)C)c5c4)n3)nc2)CC1 + C=CC(=O)N1CCN(c2nc(OCC3CCCN3C)nc3c2CCN(c2cccc4cccc(C)c24)C3)CC1CC#N")
3
>>> val("CCN1CCN(Cc2ccc(Nc3ncc(F)c(-c4cc(F)c5nc(C)n(C(C)C)c5c4)n3)nc2)CC1 + COc1cc2nc(C)nc(NC(C)c3cc(N)cc(C(F)(F)F)c3)c2cc1OC1CCOC1")
85.2
>>> val("CC(C)n1nc(-c2ccc3oc(N)nc3c2)c2c(N)ncnc21 + COc1cc2nc(C)nc(NC(C)c3cc(N)cc(C(F)(F)F)c3)c2cc1OC1CCOC1")
30.2
>>> val("CN(C)C/C=C/C(=O)Nc1cc2c(Nc3ccc(F)c(Cl)c3)ncnc2cc1O[C@H]1CCOC1 + C=CC(=O)N1CCN(c2nc(=O)n(-c3c(C)ccnc3C(C)C)c3nc(-c4c(O)cccc4F)c(F)cc23)C(C)C1")
50.1
>>> val("Cn1ncnc1[C@H]1c2n[nH]c(=O)c3cc(F)cc(c23)N[C@@H]1c1ccc(F)cc1 + C=CC(=O)N1CCN(c2nc(OCC3CCCN3C)nc3c2CCN(c2cccc4cccc(C)c24)C3)CC1CC#N")
13.9

Asked: Could you tell me which viability, T/C is on file for Cn1ncnc1[C@H]1c2n[nH]c(=O)c3cc(F)cc(c23)N[C@@H]1c1ccc(F)cc1 + CC1OCC2(CCN(c3cnc(Sc4ccnc(N)c4Cl)c(N)n3)CC2)C1N ?
Given back: 30.1

Asked: Which measured viability, T/C value corresponds to CC(C)n1nc(-c2ccc3oc(N)nc3c2)c2c(N)ncnc21 + C=CC(=O)N1CCN(c2nc(=O)n(-c3c(C)ccnc3C(C)C)c3nc(-c4c(O)cccc4F)c(F)cc23)C(C)C1 ?
Given back: 29

====

- Tested on: KRAS patient-derived spheroids with HUVEC/MSC, viability
- assay.procedure: Anticancer human tumor 323965-272-R-J2-PDC cell line growth inhibition [KRAS2];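 further: spheroids exposed to agents for 7 days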
- reported.conditions: curve of first compound; second compound 1 µM
- Description: Multicellular complex tumor spheroid response to RAS pathway inhibitors in combination with a targeted agents in patient-derived cell lines with oncogenic KRAS variants from multiple cancer types A high-throughput screen of multi-cell type tumor spheroids was designed to identify active combinations of targeted small molecules and KRAS pathway inhibitors. […] Compounds. […] If the clinical Cmax for an agent had not been determined, the highest concentration tested was 10 microM. […]
measurement.name: pIC50
Convention used: pIC50 is expressed as -log10 of the molar concentration.

>>> val("CCN1CCN(Cc2ccc(Nc3ncc(F)c(-c4cc(F)c5nc(C)n(C(C)C)c5c4)n3)nc2)CC1 + C=CC(=O)N1CCN(c2nc(=O)n(-c3c(C)ccnc3C(C)C)c3nc(-c4c(O)cccc4F)c(F)cc23)C(C)C1")
7.93

# ---- query molecule ----
Asked: Form field - read-out: pIC50; system: KRAS patient-derived spheroids with HUVEC/MSC, viability; submitted item: CCN1CCN(Cc2ccc(Nc3ncc(F)c(-c4cc(F)c5nc(C)n(C(C)C)c5c4)n3)nc2)CC1 + C=CC(=O)N1CCN(c2nc(OCC3CCCN3C)nc3c2CCN(c2cccc4cccc(C)c24)C3)CC1CC#N
Given back: 8.20

====

- System: KRAS patient-derived spheroids with HUVEC/MSC, viability
- assay.procedure: Anticancer human tumor 323965-272-R-J2-PDC cell line growth inhibition [KRAS2];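 further: spheroids exposed to agents for 7 days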
- reported.conditions: curve of first compound; second compound 1 µM
measurement.name: IC50

>>> val("CCN1CCN(Cc2ccc(Nc3ncc(F)c(-c4cc(F)c5nc(C)n(C(C)C)c5c4)n3)nc2)CC1 + CC1OCC2(CCN(c3cnc(Sc4ccnc(N)c4Cl)c(N)n3)CC2)C1N")
"< 3.16 nM"
>>> val("CC1OCC2(CCN(c3cnc(Sc4ccnc(N)c4Cl)c(N)n3)CC2)C1N (stereo not drawn) + C=CC(=O)N1CCN(c2nc(=O)n(-c3c(C)ccnc3C(C)C)c3nc(-c4c(O)cccc4F)c(F)cc23)C(C)C1")
"< 31.6 nM"

Now examine the next entry.
Asked: Consider the compound Cn1ncnc1[C@H]1c2n[nH]c(=O)c3cc(F)cc(c23)N[C@@H]1c1ccc(F)cc1 + COc1cc2nc(C)nc(NC(C)c3cc(N)cc(C(F)(F)F)c3)c2cc1OC1CCOC1 and give its measured IC50.
Given back: > 100 nM

====

Consider the following molecules and their measured viability, T/C readings.
- Test system: KRAS patient-derived spheroids with HUVEC/MSC, viability
- assay.procedure: Anticancer human tumor 323965-272-R-J2-PDC cell line growth inhibition [KRAS2];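 further: spheroids exposed to agents for 7 days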;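 on viability, T/C: 100% = DMSO vehicle control viability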
- reported.conditions: second compound 0.316 µM; first compound 0.01 µM; stronger effect = lower value
Write down the numeric answer in % and omit the unit.

The examples below pair each entry with its known result.
>>> val("CCN1CCN(Cc2ccc(Nc3ncc(F)c(-c4cc(F)c5nc(C)n(C(C)C)c5c4)n3)nc2)CC1 + COc1cc2nc(C)nc(NC(C)c3cc(N)cc(C(F)(F)F)c3)c2cc1OC1CCOC1")
59
>>> val("CC(=O)Nc1cccc(-n2c(=O)n(C3CC3)c(=O)c3c(Nc4ccc(I)cc4F)n(C)c(=O)c(C)c32)c1 + COc1cc2nc(C)nc(NC(C)c3cc(N)cc(C(F)(F)F)c3)c2cc1OC1CCOC1")
31.9
>>> val("CC(=O)OC12COC1CC(O)C1(C)C(=O)C(O)C3=C(C)C(OC(=O)C(O)C(NC(=O)OC(C)(C)C)c4ccccc4)CC(O)(C(OC(=O)c4ccccc4)C21)C3(C)C (configuration not stated) + CC1OCC2(CCN(c3cnc(Sc4ccnc(N)c4Cl)c(N)n3)CC2)C1N")
23.8

Asked: API: value(readout=viability, T/C, system=KRAS patient-derived spheroids with HUVEC/MSC, viability) for record CC(=O)OC12COC1CC(O)C1(C)C(=O)C(O)C3=C(C)C(OC(=O)C(O)C(NC(=O)OC(C)(C)C)c4ccccc4)CC(O)(C(OC(=O)c4ccccc4)C21)C3(C)C (configuration not stated) + C=CC(=O)N1CCN(c2nc(=O)n(-c3c(C)ccnc3C(C)C)c3nc(-c4c(O)cccc4F)c(F)cc23)C(C)C1
Given back: 21.9

Asked: # value lookup — system KRAS patient-derived spheroids with HUVEC/MSC, viability, readout viability, T/C, item CC(=O)Nc1cccc(-n2c(=O)n(C3CC3)c(=O)c3c(Nc4ccc(I)cc4F)n(C)c(=O)c(C)c32)c1 + C=CC(=O)N1CCN(c2nc(=O)n(-c3c(C)ccnc3C(C)C)c3nc(-c4c(O)cccc4F)c(F)cc23)C(C)C1
Given back: 33.7

Asked: Look up viability, T/C with KRAS patient-derived spheroids with HUVEC/MSC, viability for this molecule: CCN1CCN(Cc2ccc(Nc3ncc(F)c(-c4cc(F)c5nc(C)n(C(C)C)c5c4)n3)nc2)CC1 + C=CC(=O)N1CCN(c2nc(=O)n(-c3c(C)ccnc3C(C)C)c3nc(-c4c(O)cccc4F)c(F)cc23)C(C)C1
Given back: 46.5

Asked: What measured viability, T/C is associated with CC(C)n1nc(-c2ccc3oc(N)nc3c2)c2c(N)ncnc21 + CC1OCC2(CCN(c3cnc(Sc4ccnc(N)c4Cl)c(N)n3)CC2)C1N on KRAS patient-derived spheroids with HUVEC/MSC, viability?
Given back: 21

Asked: Tell me reported viability, T/C for CCN1CCN(Cc2ccc(Nc3ncc(F)c(-c4cc(F)c5nc(C)n(C(C)C)c5c4)n3)nc2)CC1 + CC1OCC2(CCN(c3cnc(Sc4ccnc(N)c4Cl)c(N)n3)CC2)C1N , tested with KRAS patient-derived spheroids with HUVEC/MSC, viability.
Given back: 56.5

Asked: Recall the recorded viability, T/C for CC(=O)Nc1cccc(-n2c(=O)n(C3CC3)c(=O)c3c(Nc4ccc(I)cc4F)n(C)c(=O)c(C)c32)c1 + CNCc1ccccc1-c1csc(C(C)Nc2nc(C)nc3cc(OC)c(OC)cc23)c1 with KRAS patient-derived spheroids with HUVEC/MSC, viability and state it.
Given back: 38.7

Asked: Query for KRAS patient-derived spheroids with HUVEC/MSC, viability: what viability, T/C does the record show for CC(C)n1nc(-c2ccc3oc(N)nc3c2)c2c(N)ncnc21 + COc1cc2nc(C)nc(NC(C)c3cc(N)cc(C(F)(F)F)c3)c2cc1OC1CCOC1 ?
Given back: 23.8

Asked: Quick check: viability, T/C on KRAS patient-derived spheroids with HUVEC/MSC, viability, item CC1COCCN1c1cc(-c2ccnn2C)c2ccnc(-c3ccn[nH]3)c2n1 (configuration not stated) + C=CC(=O)N1CCN(c2nc(=O)n(-c3c(C)ccnc3C(C)C)c3nc(-c4c(O)cccc4F)c(F)cc23)C(C)C1 ?
Given back: 44.2

Asked: Field: viability, T/C (KRAS patient-derived spheroids with HUVEC/MSC, viability). Entry: CC(C)n1nc(-c2ccc3oc(N)nc3c2)c2c(N)ncnc21 + CNCc1ccccc1-c1csc(C(C)Nc2nc(C)nc3cc(OC)c(OC)cc23)c1
Given back: 28.2
